Test system: Patiria pectinifera
Test details: Inhibition of actin polymerization in starfish during embryogenesis
Calls of active or inactive are those of the source. The calls are words filed in the database; no cut-off is given here.

| Compound | Activity |
| --- | --- |
| CC(C)CC(=O)C[C@@](C)(O)[C@H]1CC[C@H]2[C@@H]3C[C@H](OC4O[C@H](C)[C@@H](O)[C@H](OC5OC[C@@H](OC6O[C@H](C)[C@@H](O)[C@H](O)[C@H]6OC6O[C@H](C)[C@H](O)[C@H](OC7O[C@H](C)[C@H](O)[C@H](O)[C@H]7O)[C@H]6O)[C@H](O)[C@H]5OC5O[C@H](C)[C@@H](O)[C@H](O)[C@H]5O)[C@H]4O)[C@H]4C[C@@H](OS(=O)(=O)[O-])CC[C@]4(C)C3=CC[C@@]21C.[Na+] (some centres not stated) | Active |
| CC(C)CC(=O)C[C@@](C)(O)[C@H]1CC[C@H]2[C@@H]3C[C@H](OC4O[C@H](C)[C@@H](O)[C@H](OC5OC[C@@H](OC6O[C@H](CO)[C@H](O)[C@H](O)[C@H]6OC6O[C@H](C)[C@H](O)[C@H](OC7O[C@H](C)[C@H](O)[C@H](O)[C@H]7O)[C@H]6O)[C@H](O)[C@H]5OC5O[C@H](C)[C@@H](O)[C@H](O)[C@H]5O)[C@H]4O)[C@H]4C[C@@H](OS(=O)(=O)[O-])CC[C@]4(C)C3=CC[C@@]21C.[Na+] (some centres not stated) | Active |

====

In this section we review reported LD99 values for a set of compounds.
Test details: Toxicity in sea urchin embryo assessed as inhibition of embryo development before morula stage after 24 hrs by microscopy
Stated conditions: hemicentrotus pulcherrimus

| Compound | LD99 [µg/mL] |
| --- | --- |
| CC(C)CC(=O)C[C@@](C)(O)[C@H]1CC[C@H]2[C@@H]3C[C@H](OC4O[C@H](C)[C@@H](O)[C@H](OC5OC[C@@H](OC6O[C@H](CO)[C@H](O)[C@H](O)[C@H]6OC6O[C@H](C)[C@H](O)[C@H](O)[C@H]6O)[C@H](O)[C@H]5OC5O[C@H](C)[C@@H](O)[C@H](O)[C@H]5O)[C@H]4O)[C@H]4C[C@@H](OS(=O)(=O)[O-])CC[C@]4(C)C3=CC[C@@]21C.[Na+] (stereo partly drawn) | 5 |
| CC(C)CC(=O)C[C@@](C)(O)[C@H]1CC[C@H]2[C@@H]3C[C@H](OC4O[C@H](C)[C@@H](O)[C@H](OC5OC[C@@H](OC6O[C@H](C)[C@@H](O)[C@H](O)[C@H]6OC6O[C@H](C)[C@H](O)[C@H](OC7O[C@H](C)[C@H](O)[C@H](O)[C@H]7O)[C@H]6O)[C@H](O)[C@H]5OC5O[C@H](C)[C@@H](O)[C@H](O)[C@H]5O)[C@H]4O)[C@H]4C[C@@H](OS(=O)(=O)[O-])CC[C@]4(C)C3=CC[C@@]21C.[Na+] (stereo partly drawn) | 10 |
| CC(C)=CC(=O)C[C@@](C)(O)[C@H]1CC[C@H]2[C@@H]3C[C@H](OC4O[C@H](C)[C@@H](O)[C@H](OC5OC[C@@H](OC6O[C@H](CO)[C@H](O)[C@H](O)[C@H]6OC6O[C@H](C)[C@H](O)[C@H](O)[C@H]6O)[C@H](O)[C@H]5OC5O[C@H](C)[C@@H](O)[C@H](O)[C@H]5O)[C@H]4O)[C@H]4C[C@@H](OS(=O)(=O)[O-])CC[C@]4(C)C3=CC[C@@]21C.[Na+] (stereo partly drawn) | 5 |

====

Test details: Toxicity in sea urchin embryo assessed as inhibition of embryo development before morula stage after 24 hrs by microscopy
Stated conditions: hemicentrotus pulcherrimus

| Compound | LD99 |
| --- | --- |
| CC(C)=CC(=O)C[C@@](C)(O)[C@H]1CC[C@H]2[C@@H]3C[C@H](OC4O[C@H](C)[C@@H](O)[C@H](OC5OC[C@@H](OC6O[C@H](C)[C@@H](O)[C@H](O)[C@H]6OC6O[C@H](C)[C@H](O)[C@H](O)[C@H]6O)[C@H](O)[C@H]5OC5O[C@H](C)[C@@H](O)[C@H](O)[C@H]5O)[C@H]4O)[C@H]4C[C@@H](OS(=O)(=O)[O-])CC[C@]4(C)C3=CC[C@@]21C.[Na+] (stereo partly drawn) | 50 µg/mL |
| CC(C)CC(=O)C[C@@](C)(O)[C@H]1CC[C@H]2[C@@H]3C[C@H](OC4O[C@H](C)[C@@H](O)[C@H](OC5OC[C@@H](OC6O[C@H](CO)[C@H](O)[C@H](O)[C@H]6OC6O[C@H](C)[C@H](O)[C@H](OC7O[C@H](CO)[C@H](O)[C@H](O)[C@H]7O)[C@H]6O)[C@H](O)[C@H]5OC5O[C@H](C)[C@@H](O)[C@H](O)[C@H]5O)[C@H]4O)[C@H]4C[C@@H](OS(=O)(=O)[O-])CC[C@]4(C)C3=CC[C@@]21C.[Na+] (stereo partly drawn) | 10 µg/mL |
| CC(C)=CC(=O)C[C@@](C)(O)[C@H]1CC[C@H]2[C@@H]3C[C@H](OC4O[C@H](C)[C@@H](O)[C@H](OC5OC[C@@H](OC6O[C@H](C)[C@@H](O)[C@H](O)[C@H]6OC6O[C@H](C)[C@H](O)[C@H](O)[C@H]6O)[C@H](O)[C@H]5OC5O[C@H](C)[C@@H](O)[C@H](O)[C@H]5O)[C@H]4O)[C@H]4C[C@@H](O)CC[C@]4(C)C3=CC[C@@]21C (stereo partly drawn) | 10 µg/mL |

====

System: Patiria pectinifera
Test details: Inhibition of actin polymerization in starfish during embryogenesis
The source made the active and inactive calls. No cut-off for these calls is given here.

| Compound | Assay system | Activity |
| --- | --- | --- |
| CC(=O)[C@H]1CC[C@H]2[C@@H]3C[C@H](OC4O[C@H](C)[C@@H](O)[C@H](OC5OC[C@@H](OC6O[C@H](CO)[C@H](O)[C@H](O)[C@H]6OC6O[C@H](C)[C@H](O)[C@H](O)[C@H]6O)[C@H](O)[C@H]5OC5O[C@H](C)[C@@H](O)[C@H](O)[C@H]5O)[C@H]4O)[C@H]4C[C@@H](OS(=O)(=O)[O-])CC[C@]4(C)C3=CC[C@]12C.[Na+] (stereo not given in full) | Patiria pectinifera | Active |
| CC(C)C(C)C(=O)C[C@@](C)(O)[C@H]1CC[C@H]2[C@@H]3C[C@H](OC4O[C@H](C)[C@@H](O)[C@H](OC5OC[C@@H](OC6O[C@H](CO)[C@H](O)[C@H](O)[C@H]6OC6O[C@H](C)[C@H](O)[C@H](OC7O[C@H](C)[C@H](O)[C@H](O)[C@H]7O)[C@H]6O)[C@H](O)[C@H]5OC5O[C@H](C)[C@@H](O)[C@H](O)[C@H]5O)[C@H]4O)[C@H]4C[C@@H](OS(=O)(=O)[O-])CC[C@]4(C)C3=CC[C@@]21C.[Na+] (stereo not given in full) | Patiria pectinifera | Active |
| CC(C)CC(=O)C[C@@](C)(O)[C@H]1CC[C@H]2[C@@H]3C[C@H](OC4O[C@H](C)[C@@H](O)[C@H](OC5OC[C@@H](OC6O[C@H](C)[C@@H](O)[C@H](O)[C@H]6OC6O[C@H](C)[C@H](O)[C@H](OC7O[C@H](C)[C@H](O)[C@H](O)[C@H]7O)[C@H]6O)[C@H](O)[C@H]5OC5O[C@H](C)[C@@H](O)[C@H](O)[C@H]5O)[C@H]4O)[C@H]4C[C@@H](O)CC[C@]4(C)C3=CC[C@@]21C (stereo not given in full) | Patiria pectinifera | Active |
| CC(C)=CC(=O)C[C@@](C)(O)[C@H]1CC[C@H]2[C@@H]3C[C@H](OC4O[C@H](CO)[C@@H](O)[C@H](OC5O[C@H](C)[C@@H](OC6O[C@H](C)[C@@H](O)[C@H](O)[C@H]6OC6O[C@H](C)[C@H](O)[C@H](O)[C@H]6O)[C@H](O)[C@H]5OC5O[C@H](C)[C@@H](O)[C@H](O)[C@H]5O)[C@H]4O)[C@H]4C[C@@H](OS(=O)(=O)[O-])CC[C@]4(C)C3=CC[C@@]21C.[Na+] (stereo not given in full) | Patiria pectinifera | Active |
| CC(C)=CC(=O)C[C@@](C)(O)[C@H]1CC[C@H]2[C@@H]3C[C@H](OC4O[C@H](C)[C@@H](O)[C@H](OC5OC[C@@H](OC6O[C@H](C)[C@@H](O)[C@H](O)[C@H]6OC6O[C@H](C)[C@H](O)[C@H](O)[C@H]6O)[C@H](O)[C@H]5OC5O[C@H](C)[C@@H](O)[C@H](O)[C@H]5O)[C@H]4O)[C@H]4C[C@@H](O)CC[C@]4(C)C3=CC[C@@]21C (stereo not given in full) | Patiria pectinifera | Active |

Value source: ChEMBL document CHEMBL1151633
